Reported % Dead cells (vehicle subtracted) is given for each of the following compounds.
# System: mouse cortical neuron cultures
# conditionSummary: mouse, 24 h, 10 µM
parameterMeasured: % Dead cells (vehicle subtracted) (%)

* CC1(C(=O)Nc2ccc(O)c(Cl)c2Cl)CCCCC1 [Fenhexamid] | -0.6431
* OC(c1ccc(Cl)cc1)(c1ccc(Cl)cc1)C(Cl)(Cl)Cl [Dicofol] | 1.054
* CCN(CC)C(=O)C(C)Oc1cccc2ccccc12 (stereo not shown) [Napropamide] | -2.444
* C=CC1(C)OC(=O)N(c2cc(Cl)cc(Cl)c2)C1=O (stereo not shown) [Vinclozolin] | -1.854
* COC(=O)c1ccccc1S(=O)(=O)NC(=O)N(C)c1nc(C)nc(OC)n1 [Tribenuron-methyl] | -1.861
* CCOC(=O)C(C)Oc1ccc(Oc2nc3ccc(Cl)cc3o2)cc1 (stereo not shown) [Fenoxaprop-ethyl] | 9.924
* CON=C(C(=O)OC)c1ccccc1CON=C(C)c1cccc(C(F)(F)F)c1 [trifloxystrobin] | 7.404
